The reported numbers originate from ChEMBL document CHEMBL4622855.

tested on: HCT-116; experiment: Cytotoxicity against human HCT116 cells assessed as growth inhibition after 72 hrs by MTT assay; format: functional; conditions: HCT-116, 72 h

# compound, experimentalSystem, unitSpec, relationSymbol, GI50
data = [
    ("C=C1C(=O)O[C@H]2C3=CC[C@@H]4C(C)(C)[C@H](O)CC[C@@]4(C)[C@@H]3CC[C@@H]12", "HCT-116", "µM", "=", 35),
    ("CC(=O)O[C@H]1CC[C@]2(C)[C@H]3CC=C4[C@@H]5[C@@H](C)[C@H](C)CC[C@]5(C(=O)O)CC[C@@]4(C)[C@]3(C)CC[C@H]2C1(C)C [O-ACETYLURSOLIC ACID]", "HCT-116", "µM", "=", 21),
    ("CC(=O)O[C@H]1CC[C@]2(C)[C@H]3CC=C4[C@H]5[C@](C(=O)O)(CC[C@@H](C)[C@@]5(C)O)CC[C@@]4(C)[C@]3(C)CC[C@H]2C1(C)C", "HCT-116", "µM", ">", 100),
]
